# targetEntity: Histone deacetylase
# methodNotes: Inhibition of HDAC in human HeLa cells extracts after 60 mins by fluorescence assay
# Assay type: cell-based
readoutKind: IC50
Record the result as a number with its unit.

Sample answers from the record:
- structure: "Nc1ccccc1NC(=O)CCCCCCOc1ccc(-c2cc(=S)ss2)cc1"
  IC50: "32 µM"
- structure: "O=C(CCCCOc1ccc(-c2cc(=S)ss2)cc1)Nc1ccccc1"
  IC50: "50 µM"
- structure: "COc1cc(-c2cc(=S)ss2)ccc1OCC(=O)O"
  IC50: "82.85 µM"
- structure: "O=C(CCCCCCOc1ccc(-c2cc(=S)ss2)cc1)Nc1ccccc1"
  IC50: "918.7 µM"
- structure: "O=C(CCCCCCC(=O)Oc1ccc(-c2cc(=S)ss2)cc1)NO"
  IC50: "10 µM"

Sample O=C(CCCCCCC(=O)Nc1ccccc1)NOC(=O)c1ccc(-c2cssc2=S)cc1 — what was its IC50?
1.19 µM

====

# targetEntity: Histone deacetylase
# methodNotes: Inhibition of HDAC in human HeLa cells extracts after 60 mins by fluorescence assay
# Format: cell-based
# IC50 values compiled below
State just the number; it will be interpreted in µM.

Solved entries:
- structure: "O=C(O)c1csc(=S)s1"
  val: 46.4
- structure: "O=C(CCCCCCOc1ccc(-c2cc(=S)ss2)cc1)NO"
  val: 0.01
- structure: "O=C(O)c1ccc(-c2cssc2=S)cc1"
  val: 100
- structure: "O=C(CCCCCCC(=O)Oc1ccc(-c2cc(=S)ss2)cc1)Nc1ccccc1"
  val: 100
- structure: "O=C(CCCCCCC(=O)Nc1ccccc1)NOC(=O)c1csc(=S)s1"
  val: 0.25

Look at this molecule and give its reported IC50. O=C(CCCCOc1ccc(-c2cc(=S)ss2)cc1)NO
0.08
